Origin of the recorded values: ChEMBL document CHEMBL3991601

target: Tyrosine-protein kinase HCK (Homo sapiens, UniProt P08631); also: in the data inactive means no Kd found up to 30 µM
Sequence (P08631 whole entry): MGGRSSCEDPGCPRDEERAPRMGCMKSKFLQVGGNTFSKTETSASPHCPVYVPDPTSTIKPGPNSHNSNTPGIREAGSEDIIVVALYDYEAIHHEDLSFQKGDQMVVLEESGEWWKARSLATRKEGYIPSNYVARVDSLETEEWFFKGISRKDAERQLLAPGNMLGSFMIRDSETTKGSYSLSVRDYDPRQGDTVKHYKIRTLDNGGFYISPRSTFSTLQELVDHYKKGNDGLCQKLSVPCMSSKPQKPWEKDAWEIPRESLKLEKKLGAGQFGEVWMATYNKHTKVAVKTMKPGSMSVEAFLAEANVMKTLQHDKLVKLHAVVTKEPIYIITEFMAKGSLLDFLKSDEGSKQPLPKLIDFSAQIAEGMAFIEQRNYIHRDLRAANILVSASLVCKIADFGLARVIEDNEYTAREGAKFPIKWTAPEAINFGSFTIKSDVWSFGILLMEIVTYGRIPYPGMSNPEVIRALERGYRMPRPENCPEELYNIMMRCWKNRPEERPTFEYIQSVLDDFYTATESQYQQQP
Calls of active or inactive are those of the source.
Would you mind answering with one of these outcomes? y for active, n for inactive

Tell me the recorded outcome of this test for O=C(O)c1ccc2c(c1)nc(Nc1cccc(Cl)c1)c1ccncc12 .
n

# lookup: test call for C[C@]1(O)C[C@@H](c2nc(-c3ccc4ccc(-c5ccccc5)nc4c3)c3c(N)nccn32)C1
n

Which outcome did this test record for the compound S=C(NCc1ccc2c(c1)OCO2)N1CCN(c2ncnc3c2oc2ccccc23)CC1 ?
n

Look up the recorded call for Cc1c(NC(=O)OC[C@@H]2COCCN2)cn2ncnc(Nc3ccc4c(cnn4Cc4cccc(F)c4)c3)c12 in this test.
n

# lookup: test call for COc1cc2nccc(Oc3ccc(NC(=O)C4(C(=O)Nc5ccc(F)cc5)CC4)cc3)c2cc1OC [CABOZANTINIB]
y

====

Active and inactive are the calls of the source.
Here we list compounds with their recorded Kd when tested on Serine/threonine-protein kinase MRCK alpha (Homo sapiens, UniProt Q5VT25). Also: in the data inactive means no Kd found up to 30 µM.
Sequence (Q5VT25 whole entry): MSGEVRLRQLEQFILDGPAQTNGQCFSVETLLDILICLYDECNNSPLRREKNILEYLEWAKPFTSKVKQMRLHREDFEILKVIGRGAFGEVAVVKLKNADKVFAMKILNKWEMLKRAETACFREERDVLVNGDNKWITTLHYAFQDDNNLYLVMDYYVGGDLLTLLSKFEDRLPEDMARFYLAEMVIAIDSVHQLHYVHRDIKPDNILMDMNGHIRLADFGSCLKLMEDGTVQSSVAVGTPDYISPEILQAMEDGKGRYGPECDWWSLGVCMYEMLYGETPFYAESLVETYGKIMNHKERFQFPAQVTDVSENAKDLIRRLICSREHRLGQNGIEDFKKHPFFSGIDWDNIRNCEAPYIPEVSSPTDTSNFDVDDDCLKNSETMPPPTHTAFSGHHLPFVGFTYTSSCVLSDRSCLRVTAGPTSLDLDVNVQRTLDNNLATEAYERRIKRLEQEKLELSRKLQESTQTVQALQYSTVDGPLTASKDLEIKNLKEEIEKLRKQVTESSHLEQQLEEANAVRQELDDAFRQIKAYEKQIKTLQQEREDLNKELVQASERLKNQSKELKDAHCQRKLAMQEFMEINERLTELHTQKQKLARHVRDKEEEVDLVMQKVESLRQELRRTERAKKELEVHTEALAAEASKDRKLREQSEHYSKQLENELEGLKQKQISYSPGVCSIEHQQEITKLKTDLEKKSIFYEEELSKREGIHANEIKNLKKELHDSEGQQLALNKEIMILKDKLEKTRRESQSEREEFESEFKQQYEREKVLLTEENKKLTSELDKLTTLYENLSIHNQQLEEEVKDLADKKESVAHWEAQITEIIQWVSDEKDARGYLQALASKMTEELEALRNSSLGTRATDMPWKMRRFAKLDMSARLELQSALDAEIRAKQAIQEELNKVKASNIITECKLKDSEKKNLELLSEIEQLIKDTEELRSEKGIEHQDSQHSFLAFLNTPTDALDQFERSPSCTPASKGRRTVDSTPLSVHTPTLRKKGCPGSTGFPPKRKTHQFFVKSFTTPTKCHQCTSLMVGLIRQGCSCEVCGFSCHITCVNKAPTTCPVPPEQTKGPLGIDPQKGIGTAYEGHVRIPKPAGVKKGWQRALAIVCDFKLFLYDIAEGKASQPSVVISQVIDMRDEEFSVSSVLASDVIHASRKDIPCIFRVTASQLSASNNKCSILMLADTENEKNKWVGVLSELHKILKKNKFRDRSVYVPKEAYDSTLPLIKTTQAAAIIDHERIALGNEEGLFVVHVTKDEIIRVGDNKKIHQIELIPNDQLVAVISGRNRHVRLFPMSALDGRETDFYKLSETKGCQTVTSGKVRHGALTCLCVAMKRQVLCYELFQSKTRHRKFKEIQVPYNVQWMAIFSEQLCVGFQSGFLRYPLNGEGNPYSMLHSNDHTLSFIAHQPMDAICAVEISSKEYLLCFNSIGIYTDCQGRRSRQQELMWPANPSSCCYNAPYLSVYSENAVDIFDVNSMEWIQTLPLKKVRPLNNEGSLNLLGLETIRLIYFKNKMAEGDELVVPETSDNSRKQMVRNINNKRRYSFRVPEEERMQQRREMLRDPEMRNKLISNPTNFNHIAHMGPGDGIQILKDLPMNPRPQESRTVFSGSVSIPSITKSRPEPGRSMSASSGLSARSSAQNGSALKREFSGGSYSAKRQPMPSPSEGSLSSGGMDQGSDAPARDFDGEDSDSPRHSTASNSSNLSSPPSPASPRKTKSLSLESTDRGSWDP

Entry under review: Cn1c(=O)c(F)c(Nc2ccc(I)cc2F)c2c(=O)n(C[C@@H](O)CO)cnc21 . Reported Kd?
> 30 µM (inactive)

Entry under review: Cc1c(NC(=O)OC[C@@H]2COCCN2)cn2ncnc(Nc3ccc4c(cnn4Cc4cccc(F)c4)c3)c12 . Reported Kd?
> 30 µM (inactive)

What value of Kd has been recorded for this entry: S=C(NCc1ccc2c(c1)OCO2)N1CCN(c2ncnc3c2oc2ccccc23)CC1
> 30 µM (inactive)

====

Activity calls are given as the source filed them.
Measured quantity: Kd

Checklist item: Kd tested on Serine/threonine-protein kinase N3 (Homo sapiens, UniProt Q6P5Z2), entry Cc1cc(-c2cc(OC(=O)c3ccccc3)ccc2Cl)cc2nnc(Nc3ccc(OCCN4CCCC4)cc3)nc12 [TG100-801] , value?; also: in the data inactive means no Kd found up to 30 µM
Sequence (Q6P5Z2 whole entry): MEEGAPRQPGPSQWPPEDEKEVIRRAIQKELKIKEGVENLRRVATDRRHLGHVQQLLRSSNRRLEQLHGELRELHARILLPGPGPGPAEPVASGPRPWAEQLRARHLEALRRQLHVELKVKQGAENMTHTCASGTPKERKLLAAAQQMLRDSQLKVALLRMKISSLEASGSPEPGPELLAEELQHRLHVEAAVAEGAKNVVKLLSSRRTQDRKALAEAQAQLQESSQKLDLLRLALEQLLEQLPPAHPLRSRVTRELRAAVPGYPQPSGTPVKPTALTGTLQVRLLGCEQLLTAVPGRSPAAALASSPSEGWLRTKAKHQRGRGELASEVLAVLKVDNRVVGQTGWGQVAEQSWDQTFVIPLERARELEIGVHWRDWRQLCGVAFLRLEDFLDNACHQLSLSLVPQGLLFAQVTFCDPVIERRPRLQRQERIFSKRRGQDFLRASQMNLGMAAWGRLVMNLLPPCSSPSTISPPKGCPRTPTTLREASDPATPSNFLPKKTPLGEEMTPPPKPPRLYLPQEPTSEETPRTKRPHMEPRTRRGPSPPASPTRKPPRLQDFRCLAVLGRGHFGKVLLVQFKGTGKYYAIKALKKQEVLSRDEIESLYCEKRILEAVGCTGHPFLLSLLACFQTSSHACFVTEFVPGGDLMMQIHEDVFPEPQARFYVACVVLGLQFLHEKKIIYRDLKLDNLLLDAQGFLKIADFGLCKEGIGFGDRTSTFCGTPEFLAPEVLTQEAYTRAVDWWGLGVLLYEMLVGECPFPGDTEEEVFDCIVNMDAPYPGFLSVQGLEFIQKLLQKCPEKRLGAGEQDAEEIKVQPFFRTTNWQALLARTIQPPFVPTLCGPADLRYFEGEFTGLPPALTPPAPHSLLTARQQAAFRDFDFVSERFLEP
> 30 µM (inactive)

State its Kd on Serine/threonine-protein kinase N3 (Homo sapiens, UniProt Q6P5Z2): COc1cc2ncnc(Nc3ccc(O)cc3)c2cc1OC [WHI-P131]
> 30 µM (inactive)

Item O[C@H]1CC[C@H](Nc2ncc3nc(Nc4c(F)cc(F)cc4F)n([C@H]4CCOC4)c3n2)CC1 [TANZISERTIB] with Serine/threonine-protein kinase N3 (Homo sapiens, UniProt Q6P5Z2) - Kd?
> 30 µM (inactive)

====

target: Dual specificity mitogen-activated protein kinase kinase 2 (Homo sapiens); also: in the data inactive means no Kd found up to 30 µM
Sequence (P36507 whole entry): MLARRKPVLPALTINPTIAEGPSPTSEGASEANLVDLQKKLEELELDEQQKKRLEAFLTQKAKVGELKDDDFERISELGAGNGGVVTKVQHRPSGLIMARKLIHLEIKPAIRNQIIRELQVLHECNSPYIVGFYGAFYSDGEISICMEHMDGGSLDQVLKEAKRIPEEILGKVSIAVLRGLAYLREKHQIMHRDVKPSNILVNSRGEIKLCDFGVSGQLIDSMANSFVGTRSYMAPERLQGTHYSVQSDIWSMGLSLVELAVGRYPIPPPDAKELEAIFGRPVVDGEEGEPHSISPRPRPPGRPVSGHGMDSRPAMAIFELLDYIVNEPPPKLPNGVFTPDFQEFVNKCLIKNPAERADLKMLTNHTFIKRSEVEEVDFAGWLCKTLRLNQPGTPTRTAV
Calls of active or inactive are those of the source.
Bench note: report the call from active, inactive

Fill in: this test's call for CCOc1ccn(-c2ccc(F)cc2)c(=O)c1C(=O)Nc1ccc(Oc2ccnc(N)c2Cl)c(F)c1 is ___
inactive

Answer briefly: the call reported for O=c1[nH]c([C@@H]2CCCN2)nc2c1oc1ccc(Cl)cc12 in this assay.
inactive

Record request — test call for C[C@]1(O)C[C@@H](c2nc(-c3ccc4ccc(-c5ccccc5)nc4c3)c3c(N)nccn32)C1
active

Any idea what this test logged for S=C(NCc1ccc2c(c1)OCO2)N1CCN(c2ncnc3c2oc2ccccc23)CC1 ?
inactive

# outcome recorded in this test, key = Cc1c(Cn2c(C)nc3c(C(=O)O)cc(N4CCOCC4)cc32)cccc1C(F)(F)F
inactive

I'd appreciate the recorded outcome for CNC(=O)c1cccc(-c2ccc3c(N4CCOC[C@@H]4C)nc(N4CCOC[C@@H]4C)nc3n2)c1 from this test.
inactive

# fetch the recorded call for COc1cc2ncnc3c2cc1OCCCCCN(C)Cc1ccc(Br)cc1N3 here
inactive

What did the test return for COc1cc(Nc2ncc(F)c(Nc3ccc4c(n3)N(COP(=O)(O)O)C(=O)C(C)(C)O4)n2)cc(OC)c1OC ?
inactive

Test call, this molecule: CN1CCN(c2nc(C3=C(c4c[nH]c5ccccc45)C(=O)NC3=O)c3ccccc3n2)CC1
inactive

Returns: the outcome recorded for Cn1c(=O)c(F)c(Nc2ccc(I)cc2F)c2c(=O)n(C[C@@H](O)CO)cnc21 in this assay.
active
